MEASURED TARGET: unphosphorylated Mouse ERK2 protein (inactive ERK2) (Mus musculus, UniProt P63085)
Sequence (P63085 whole entry): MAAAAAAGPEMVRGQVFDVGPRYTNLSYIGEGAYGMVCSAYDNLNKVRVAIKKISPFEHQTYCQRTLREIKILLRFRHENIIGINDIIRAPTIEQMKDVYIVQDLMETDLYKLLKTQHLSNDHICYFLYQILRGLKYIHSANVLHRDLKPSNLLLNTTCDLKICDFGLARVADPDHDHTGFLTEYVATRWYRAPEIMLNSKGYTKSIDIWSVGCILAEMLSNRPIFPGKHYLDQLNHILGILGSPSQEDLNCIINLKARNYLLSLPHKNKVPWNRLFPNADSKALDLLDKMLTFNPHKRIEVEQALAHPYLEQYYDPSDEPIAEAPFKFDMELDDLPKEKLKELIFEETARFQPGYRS
TEST: Coupled ERK2 (cERK) assay, coupled MEK1/ERK2 IMAP
Assay type: biochemical
MEASUREMENT SETUP: 30 min preincubation with inactive ERK2, then activation by human MEK1; 30 μM ATP; fluorescence polarization; read-out: cERK2 IC50
pIC50: −log10 of the molar value.
OBSERVABLE: pIC50

P: N#Cc1ccccc1N1CCCC(C(=O)Nc2ccc3[nH]nc(-c4ccncc4)c3c2)C1 (stereo not drawn) [Compound 55]
Q: O=C(Nc1ccc2[nH]nc(-c3ccncc3)c2c1)C1CCCN(Cc2ccccc2F)C1 (stereo not drawn) [Compound 22]
R: COc1cc(F)c(CN2CCOC(C(=O)Nc3ccc4[nH]nc(-c5ccncc5)c4c3)C2)cc1OC (stereo not drawn) [Compound 40]
Give the descending pIC50 ranking for the 3 compounds listed above. Response field: labels, in requested order.
Q, P, R
(Q: 7.56, P: 7.04, R: 5.96)

I: O=C(Nc1ccc2[nH]nc(-c3ccncc3)c2c1)C1CN(Cc2cscn2)CCO1 (stereo not drawn) [Compound 2]
II: O=C(Nc1ccc2[nH]nc(-c3ccncc3)c2c1)C1CN(Cc2c(F)cccc2C(F)(F)F)CCO1 (stereo not drawn) [Compound 39]
III: O=C(Nc1ccc2[nH]nc(-c3ccncc3)c2c1)C1CN(Cc2c(F)cccc2Cl)CCO1 (stereo not drawn) [Compound 37]
IV: CSc1ccc(CN2CCOC(C(=O)Nc3ccc4[nH]nc(-c5ccncc5)c4c3)C2)cc1 (stereo not drawn) [Compound 34]
V: O=C(Nc1ccc2[nH]nc(-c3ccncc3)c2c1)[C@H]1CN(Cc2ccccc2F)CCS1 [Compound 61]
List by increasing pIC50. Response field: labels, in requested order.
II, I, IV, III, V
(II: 5.32, I: 5.74, IV: 6.29, III: 6.76, V: 7.70)
